Taken from ChEMBL document CHEMBL1201862.

System: M14
Assay: NCI tumour cell line growth inhibition, 48 h
Active and inactive are the calls of the source. No stated cut-off is given here; in the data, active = GI50 up to about 1.1 µM and inactive = higher.
Outcome (select one): 1 for active, 0 for inactive

QUERY: Recorded test outcome, item `O=c1c2c(c1=O)C1(SCCCS1)c1cc(Cl)ccc1O2`
RESULT: 0

QUERY: Recorded test outcome, item COc1ccc(/C=C2\CCC(CNc3ccc(OC)cc3)C2=O)cc1 (stereo not drawn)
RESULT: 0

QUERY: Recorded test outcome, item `CN(Cc1cc(Br)cc(Br)c1O)Cc1c(O)ccc2ccccc12`
RESULT: 0

QUERY: Recorded test outcome, item `O=c1ccc2nc3cc(Br)ccc3sc-2c1`
RESULT: 0

QUERY: Recorded test outcome, item `Cc1cc(O)c2cc3c(O)c(O)ccc3cc2c1`
RESULT: 0

QUERY: Recorded test outcome, item `O=C(O)Cc1cc(O)c(CC(=O)O)cc1O`
RESULT: 0

QUERY: Recorded test outcome, item `NNC(=O)c1cc(Cl)ccc1NC(=O)C12CC3CC(CC(C3)C1)C2`
RESULT: 0

QUERY: Recorded test outcome, item `O=C(/C=C(\N=P(c1ccccc1)(c1ccccc1)c1ccccc1)C(F)(F)C(F)(F)C(F)(F)C(F)(F)C(F)(F)C(F)(F)C(F)(F)F)c1ccccc1`
RESULT: 0

QUERY: Recorded test outcome, item `O=c1[nH]c2nccn2c2c1SCCN2`
RESULT: 0

QUERY: Recorded test outcome, item `C[C@]1(S(=O)(=O)c2ccccc2)C[C@H]2N(Cc3ccccc3)[C@@H]1CCC21OCCO1`
RESULT: 0

QUERY: Recorded test outcome, item `Clc1ccc(-c2nnc(C34CC5CC(CC(C5)C3)C4)o2)cc1`
RESULT: 0

QUERY: Recorded test outcome, item COC(=O)C(CNC(=O)/C=C/c1ccc(OC(C)=O)c(OC(C)=O)c1)NC(=O)/C=C/c1ccc(OC(C)=O)c(OC(C)=O)c1 (stereo not drawn)
RESULT: 0

QUERY: Recorded test outcome, item `COc1cc2c3cc1Oc1c(OC)c(OC)cc4c1[C@@H](Cc1ccc(O)c(c1)Oc1ccc(cc1)C[C@@H]3N(C)CC2)N(C)CC4.c1ccccc1`
RESULT: 0

QUERY: Recorded test outcome, item `O=C(O)c1ccccc1/C=C1\Cc2ccccc2C1=O`
RESULT: 0

QUERY: Recorded test outcome, item `CN(C)CCCNC(=O)N/N=C/c1ccccn1`
RESULT: 0

QUERY: Recorded test outcome, item `CC(=O)O[C@H]1C(=O)[C@@]2(C)[C@H]([C@H](OC(=O)c3ccccc3)[C@]3(O)C[C@H](OC(=O)[C@H](O)[C@@H](NC(=O)OC(C)(C)C)c4ccco4)C(C)=C1C3(C)C)[C@]1(OC(C)=O)CO[C@@H]1C[C@@H]2O`
RESULT: 1

QUERY: Recorded test outcome, item `O=C1CC(c2ccccc2)=Nc2ccccc2N1`
RESULT: 0

QUERY: Recorded test outcome, item `c1cc2nnc1SCCSCCCSCCS2`
RESULT: 0

QUERY: Recorded test outcome, item `COc1cc(Br)cc2cc(-c3cn4ccsc4n3)c(=O)oc12`
RESULT: 0

QUERY: Recorded test outcome, item `COc1cc(N(Cc2ccc3nc(OC)c(OC)nc3c2)Cc2ccc3nc(OC)c(OC)nc3c2)cc(OC)c1OC`
RESULT: 0

QUERY: Recorded test outcome, item `O=C1C=C(Br)c2c(Br)sc(Br)c21`
RESULT: 0

QUERY: Recorded test outcome, item `COc1ccc(NC(=O)CSc2nnc(-c3ccc(/N=C\c4ccc(Cl)cc4)cc3)o2)cc1`
RESULT: 0

QUERY: Recorded test outcome, item OC1(c2ccc(Cl)cc2)c2ccccc2C2=Nc3ccccc3CN21 (stereo not drawn)
RESULT: 0

----------
Tested on: IGROV-1
Assay: NCI tumour cell line growth inhibition, 48 h
Calls of active or inactive are those of the source. Cut-off read from the data, not from the text of the source: active = GI50 up to about 1.1 µM and inactive = higher.
Exercise: state measured GI50 for each of the molecules provided.

QUERY: Entry under review: `Cc1cc(C)c(C)c(-n2[nH]c(=O)n(C)c2=O)c1C` . Reported GI50?
RESULT: > 100 µM (inactive)

QUERY: Entry under review: `COc1ccc([Se]c2ccc(OC)cc2)cc1` . Reported GI50?
RESULT: > 100 µM (inactive)

QUERY: Entry under review: `O=C(/C=C/c1ccccc1)c1cc(CN2CCOCC2)c(O)c(CN2CCOCC2)c1` . Reported GI50?
RESULT: > 100 µM (inactive)

QUERY: Entry under review: c1ccc(/N=C2\SC(c3ccccc3)CN2C23CC4CC(CC(C4)C2)C3)cc1 (configuration not stated) . Reported GI50?
RESULT: > 100 µM (inactive)

QUERY: Entry under review: COC1CCC(O)C(CO)O1 (configuration not stated) . Reported GI50?
RESULT: 22.7 µM (inactive)

QUERY: Entry under review: `Cc1cc(N(CCCl)CCCl)ccc1/C=N/NC(=O)Cc1cc(=O)oc2cc(O)ccc12` . Reported GI50?
RESULT: 15.8 µM (inactive)

QUERY: Entry under review: `O=C1N(c2ccccc2)C(=S)/C(=C/c2ccc(Cl)cc2)N1c1ccc(Cl)cc1` . Reported GI50?
RESULT: 41.3 µM (inactive)

----------
System: UACC-62
Experiment: NCI tumour cell line growth inhibition, 48 h
Calls of active or inactive are those of the source. No stated cut-off is given here; in the data, active = GI50 up to about 1.1 µM and inactive = higher.
MEASURE: GI50

QUERY: Reported GI50 for UACC-62, given `O=c1[nH]nc(Cc2ccccc2)n1C1CC1` ?
RESULT: > 100 µM (inactive)

QUERY: Reported GI50 for UACC-62, given `CC1(C)CC(N2CCN(C3CC(C)(C)NC(C)(C)C3)CC2)CC(C)(C)N1` ?
RESULT: > 100 µM (inactive)

QUERY: Reported GI50 for UACC-62, given CCOC(=O)C12OC(CCC1=O)C(C(=O)OC)=C2C(=O)OC (stereo not given) ?
RESULT: > 10 µM (inactive)

QUERY: Reported GI50 for UACC-62, given `CC(=O)O[C@H]1C(=O)[C@@]2(C)[C@H]([C@H](OC(=O)c3ccccc3)[C@]3(O)C[C@H](OC(=O)[C@H](O)[C@@H](NC(=O)OC(C)(C)C)c4ccco4)C(C)=C1C3(C)C)[C@]1(OC(C)=O)CO[C@@H]1C[C@@H]2O` ?
RESULT: 0.0129 µM (active)

QUERY: Reported GI50 for UACC-62, given CCCCCCCCCCCCCCCC(=O)Nc1ccn(C2CCC(COP(=O)(O)OCC3OC(n4cc(F)c(=O)[nH]c4=O)CC3OC(C)=O)O2)c(=O)n1 (stereo not given) ?
RESULT: 10.7 µM (inactive)

QUERY: Reported GI50 for UACC-62, given `CCCCCCCCCOC(=O)c1cnc(Cl)cn1` ?
RESULT: 18.1 µM (inactive)

QUERY: Reported GI50 for UACC-62, given `O=Nc1c(-c2c(O)[nH]c3ccccc23)[nH]c2ccccc12` ?
RESULT: 2.93 µM (inactive)

QUERY: Reported GI50 for UACC-62, given `NNC(=O)c1cc(Cl)ccc1NC(=O)C12CC3CC(CC(C3)C1)C2` ?
RESULT: 24.1 µM (inactive)

QUERY: Reported GI50 for UACC-62, given `COCN1C(=O)[C@@H]2C[C@@H](OC/C=C/CBr)CN2C(=O)c2ccccc21` ?
RESULT: 19 µM (inactive)

QUERY: Reported GI50 for UACC-62, given `CN(C)/C(=N\C#N)NCc1ccccc1` ?
RESULT: > 100 µM (inactive)

----------
Tested on: PC-3
Assay: NCI tumour cell line growth inhibition, 48 h
Activity calls are given as the source filed them. Rule as the data show it: active = GI50 up to about 1.1 µM and inactive = higher.
Outcome (select one): t = active, f = inactive

QUERY: Recorded test outcome, item `O=C(c1ccccc1)n1c2ccc(Br)cc2c2nc3ccccc3nc21`
RESULT: f

QUERY: Recorded test outcome, item O=C1NCN(c2ccccc2)C12CCN(CC1COc3ccccc3O1)CC2 (stereo not given) [SPIROXATRINE]
RESULT: f

QUERY: Recorded test outcome, item COc1ccc(C[C@H]2NC[C@H](O)[C@H]2OC(C)=O)cc1 [ANISOMYCIN]
RESULT: t

QUERY: Recorded test outcome, item `Clc1ccc(-c2nnc(C34CC5CC(CC(C5)C3)C4)o2)cc1`
RESULT: f

QUERY: Recorded test outcome, item Nc1nc(Cl)nc2c1ncn2C1CCC(CO)O1 (stereo not given)
RESULT: f

QUERY: Recorded test outcome, item `CCC/N=C1\S/C(=C/c2ccc(OC)c(OC)c2)C(=O)N1c1ccccc1`
RESULT: f

QUERY: Recorded test outcome, item `O=c1c2ccccc2sc2nc(CCl)nn12`
RESULT: f

QUERY: Recorded test outcome, item `O=C1C(=Cc2cccc(O)c2)N=C(c2ccccc2)N1n1c(-c2ccccc2)nc2ccccc2c1=O`
RESULT: f

QUERY: Recorded test outcome, item COC(=O)C1=C(OC(=O)/C(=C/c2c(F)cccc2F)c2ccccc2)C(C(=O)OC)[C@@]2(O)[C@@H](C(=O)OC)[C@H](C)C[C@@H]1[C@@H]2C(=O)OC (stereo not given in full)
RESULT: f

QUERY: Recorded test outcome, item CC1C(C#N)(C#N)C(C#N)=C(N)C1(C)[N+](=O)[O-] (stereo not given)
RESULT: f

QUERY: Recorded test outcome, item `CCOC(=O)c1nnsc1NC(=O)NCCCCCCn1c(=O)n(CCCCCCNC(=O)Nc2snnc2C(=O)OCC)c(=O)n(CCCCCCNC(=O)Nc2snnc2C(=O)OCC)c1=O`
RESULT: f

QUERY: Recorded test outcome, item `CC1=C(C)SC(=C2Sc3c(n(C)c(=O)[nH]c3=O)S2)S1`
RESULT: f

QUERY: Recorded test outcome, item CC(C)(C)CN1[C@@H]2CCCC[C@H]2N(CC(C)(C)C)P1(=O)C(O)/C=C/c1ccccc1 (stereo not given in full)
RESULT: f

QUERY: Recorded test outcome, item O=C1C(Cl)=C(Cl)C(Cl)(Cl)C(Cl)C1(Cl)Cl (stereo not given)
RESULT: f

QUERY: Recorded test outcome, item `O=c1[nH]nc(-c2ccccc2)c2[nH]c3c(c12)CCCc1ccccc1-3`
RESULT: f
